Tested on: PPARg homodimer (NR concentration 180 nM)
Assay: PBM binding z-score (relative to random genomic background probes); higher = stronger binding; sequences stand for … in GC…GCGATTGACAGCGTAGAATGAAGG
Label Met for high-side PBM binding z-score (at or above 0.8) and Not met for low-side PBM binding z-score (below it).

seq_string	assayed_target	group_label
ATCGAAAGGTCGTGAGGTGAGTCTACAGAAAGGC	PPARg homodimer (NR concentration 180 nM)	Met

Req: Is PBM binding z-score at least 0.8? Consider CGAACCAGGTCAAGGACAGTGAATCTCCGCACGC
Resp: Met

Req: Could you verify whether the entry GCTGTTAGTTGAAAGGGCAACCGAATGATTCTCG shows PBM binding z-score of no less than 0.8?
Resp: Met

Req: # check: PBM binding z-score of TCATACAGGTAAATGCTAGGTGAAAGTCCGATCT is greater than or equal to 0.8
Resp: Not met

Req: Kindly determine if PBM binding z-score recorded for CGAATGAGGGCATGAGTTGATAGCAAATGCCGAT is above or exactly 0.8.
Resp: Not met

* * *

Tested on: THRa:RXRa (NR concentration 90 nM, RXRa partner concentration 90 nM)
Experiment: PBM binding z-score (relative to random genomic background probes); higher = stronger binding; sequences stand for … in GC…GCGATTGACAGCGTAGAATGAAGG
Property: PBM binding z-score; scope: individual sequences

Answered examples (10):
seq_string	PBM binding z-score
GGAACGAGGGCGTTCGAGTTGATAGCATGGCGAT	2.16
GGAACGAGGGCAAAGTTGATAGCATCTGTCGACG	1.25
CCTGCTAGGTCATGGTCCGCTAATCTACAGTATG	2.86
CCAACTAGGTCACCGGAAGGTCAAAGTCCGCATG	4.43
CCTTACGTGTCACGAGGTTATAGCACGACGAGCG	1.96
CGTCAAAGTTCAACTAGGGTAACGTAAAGCACGC	5.14
CCAGACAGGTGAGAAGGTAATTCAGCCTCGATTA	0.0341
CGTCCTAGGTCATAGGAGGTCAGTGAAGACAGAT	5.13
TTACCAAGGTGAAAAGTCGTTGATGCACGCCTTG	1.37
AGTCAAAGTTCATCCAGGTAACGTAAGATATGCT	3.57

Req: Consider the sequence shown here: TAGCCTAGGTCATTCAGGGGCCAATATAGAAAGC What is its recorded PBM binding z-score?
Resp: 3.85

Req: # PBM binding z-score lookup, item GCTGACAGGTGAAACGCAGGTAACTCAGGGTGGC
Resp: 1.27

Req: Look at this sequence and give its reported PBM binding z-score. TCTGATAGGTCAGTTGGTCAGCTAACGAGCTGCC
Resp: 0.722

Req: Which measured PBM binding z-score value corresponds to GCTTACGCGTCAAAGGTTATAGCATGAATAGAAT ?
Resp: 1.65

Req: Which PBM binding z-score is reported for this sequence? AGTCAAAGTTCATCTACGTAACGTAAGATATGCT
Resp: 1.88

Req: // query PBM binding z-score value for entry GCTTTCGGGTCAAAGGTTATAGCATGAATAGAAT
Resp: 4.61

* * *

Tested on: RARa homodimer (NR concentration 270 nM)
Test: PBM binding z-score (relative to random genomic background probes); higher = stronger binding; sequences stand for … in GC…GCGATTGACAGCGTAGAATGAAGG
The label depends only on PBM binding z-score: class 1 if it is at least -0.2, class 0 if it is smaller.

Would you please look over these solved cases?
seq_string	group_label
TCTCGGAGGACACGAAAGGTCGGAGCTCGACATC	class 0
CCTAGTTGGTCATGAGGTCACACACCGGATATGA	class 1
CAGAGTAGGTTATGGGGCATTCAGGCAACGGTGA	class 1
ACTATTAGTTGACTTAGCGCAACCGATACGACGC	class 1
ATACCAAGGTGCTCGTGAGGTCGTTGATACTAAC	class 0
ACTAGCAGGCCAAGGGTCCCTCAAGATTAGTCCG	class 0
TCTGCTAGGTCAAGGATGGTCAGCTAATCTGCTA	class 0
CCTAGCAGGCCAATCTGGGTCACTAAAGGCTTGA	class 0
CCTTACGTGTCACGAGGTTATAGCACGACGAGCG	class 1
TCATATAGGTACTACAGGTGAAAGTCGGCATCTA	class 1

Req: Is reported PBM binding z-score greater than or equal to -0.2 here: TCATATAGGTAAATGCTAGGTGAAATTCCGATCT
Resp: class 1

Req: In plain terms: is recorded PBM binding z-score at least -0.2 for CCTAGCAGGCCAGGGTCACTCACGCATTTCGCTT ?
Resp: class 1

* * *

System: PPARg:RXRa 30nM:10nM, anti-RXR (NR concentration 30 nM, RXRa partner concentration 10 nM)
Assay: PBM binding z-score (relative to random genomic background probes); higher = stronger binding; sequences stand for … in GC…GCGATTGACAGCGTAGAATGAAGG
Quick list: PBM binding z-score per entry.
Would you mind answering with just the numeric figure?

Example cases with answers are listed next.
seq_string	assayed_target	PBM binding z-score
ATCGAAAGGTCGCGGTGAGTATAGAGAAAGGGAA	PPARg:RXRa 30nM:10nM, anti-RXR (NR concentration 30 nM, RXRa partner concentration 10 nM)	1.65
TCAGACAGATGAAGGTAACTCAGGTACGCAGTCG	PPARg:RXRa 30nM:10nM, anti-RXR (NR concentration 30 nM, RXRa partner concentration 10 nM)	4.27
ACAGGCAGGTGATGAAGGTAACTCAGGCTATCAT	PPARg:RXRa 30nM:10nM, anti-RXR (NR concentration 30 nM, RXRa partner concentration 10 nM)	0.158
ATATGTAGGTTAGCTGGGGTCATTGAGACTAGGC	PPARg:RXRa 30nM:10nM, anti-RXR (NR concentration 30 nM, RXRa partner concentration 10 nM)	2.46
GCTTGTAGATCAAGGTTACGAAAGACTAAGCTAA	PPARg:RXRa 30nM:10nM, anti-RXR (NR concentration 30 nM, RXRa partner concentration 10 nM)	0.408

Req: Name the reported PBM binding z-score value associated with the sequence AATACAGGGTCATCGTAGGCCAGAGTCCGCACAG
Resp: 2.39

* * *

Tested on: RARg homodimer (NR concentration 270 nM)
Assay: PBM binding z-score (relative to random genomic background probes); higher = stronger binding; sequences stand for … in GC…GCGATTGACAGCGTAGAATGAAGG
endpoint: PBM binding z-score
Give a plain numeric answer without units written out.

seq_string	assayed_target	PBM binding z-score
TTACCAAGGTGGGCTGAGGTCGTTGATCCAACTC	RARg homodimer (NR concentration 270 nM)	-0.257
CCTGCTAGGTCAATGGTCAGCTACAGCAGCTCGC	RARg homodimer (NR concentration 270 nM)	4.13
TCTTGTAGATCAGCAGGTTAATAAAGCTGGCCAA	RARg homodimer (NR concentration 270 nM)	-0.342
GCTCGTTGGTCAGTAAAAGGTCACACACCGGTCG	RARg homodimer (NR concentration 270 nM)	5.36
CCGACTGGGGCAAAGGATACCATACTCAGTACGA	RARg homodimer (NR concentration 270 nM)	0.572

Req: # value lookup — system RARg homodimer (NR concentration 270 nM), readout PBM binding z-score, item TAGCCTAGGTCAGATCGGACCAGTATACGCTATA
Resp: 3.46

* * *

System: PPARg:RXRa 30nM:10nM, anti-RXR (NR concentration 30 nM, RXRa partner concentration 10 nM)
Test: PBM binding z-score (relative to random genomic background probes); higher = stronger binding; sequences stand for … in GC…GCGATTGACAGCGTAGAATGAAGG
Class 1 (yes): PBM binding z-score at least 2. Class 0 (no): PBM binding z-score below 2.

Field: example entries. Status: answers known.
seq_string	assayed_target	group_label
AGGCAAAGTTCATCTAGGTAACGTAAGATATGCT	PPARg:RXRa 30nM:10nM, anti-RXR (NR concentration 30 nM, RXRa partner concentration 10 nM)	1 (yes)
AGAATGAGGTTACCAAAGATTAGGGAAACGCTTG	PPARg:RXRa 30nM:10nM, anti-RXR (NR concentration 30 nM, RXRa partner concentration 10 nM)	0 (no)
AGAATGAGGTTAATAAGATCAGGGAATTGCGGTC	PPARg:RXRa 30nM:10nM, anti-RXR (NR concentration 30 nM, RXRa partner concentration 10 nM)	0 (no)

Req: For this sequence, is measured PBM binding z-score 2 or higher? AACTCTAGGTAAAGATAGTTCAGTGAATGCAAAT
Resp: 0 (no)

Req: Please indicate if the recorded PBM binding z-score for ACTAGCAGGCCAAGTTTGGGTCACTGAAACAAAG meets or exceeds 2.
Resp: 0 (no)

Data origin: the supplement of paper PMC6555819
